# subject.of.test: T1, biotinylated human B7-H7 protein (Acro Biosystems, B77-H82F5) (human, UniProt Q9UM44 23-344, biotinylated)
# T1 construct: Bought soluble protein; also called biotin-B7H7 protein
# T1 sequence (looked up): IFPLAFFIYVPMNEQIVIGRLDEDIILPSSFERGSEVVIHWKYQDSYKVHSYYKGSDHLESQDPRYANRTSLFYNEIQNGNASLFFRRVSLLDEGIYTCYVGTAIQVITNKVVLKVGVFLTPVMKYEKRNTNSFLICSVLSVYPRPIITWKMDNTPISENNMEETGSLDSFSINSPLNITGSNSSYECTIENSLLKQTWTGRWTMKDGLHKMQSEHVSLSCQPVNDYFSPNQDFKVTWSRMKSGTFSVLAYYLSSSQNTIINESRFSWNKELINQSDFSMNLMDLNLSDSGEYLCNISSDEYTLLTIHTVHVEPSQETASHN
# experiment: flow cytometry, blocking of biotinylated human B7-H7 binding to CHO-K1/KIR3DL3 cells
observable: Maximum inhibition rate (%)

[[record]]
binder = "PR003260 (antibody, human IgG1, kappa, V domains shown, Human IgG1; also called 70F3B1) VH: QVQLVESGGGVVQPGRSLRLPCAASGFTFSRYGMHWVRQAPGKGLEWVADIWYDGSKKYYADSVKGRFTISRDNSKNTLYLQMNSLRAEDTAVYFCTRDGGYSYGPFDYWGQGTLVTVSS VL: EIVMTQSPATLSVSPGERATLSCRASQSVSSNLAWYQQKPGQAPRLLIYYASTRAPGIPARFSGSESGTEFTLTISSLQSEDFAVYYCQQYNIWPYTFGQGTKLEIKR"
observable = "Maximum inhibition rate (%)"
units_symbol = "%"
test_value = 106

